# Tested on: NCI-H226 lung
# method summary: NCI tumour cell line growth inhibition, 48 h
measured quantity: TGI

# value of TGI, NCI-H226 lung, item `O=[N+]([O-])c1ncc(N(CCO)CCO)s1` = > 100 µM

# value of TGI, NCI-H226 lung, item `COc1ccc(C(=O)/C=C/c2ccc(OCCCCCCCCCCOc3ccc(/C=C/C(=O)c4ccc(OC)cc4)cc3)cc2)cc1` = > 100 µM

# value of TGI, NCI-H226 lung, item `CO/C=C(/C(=O)OC)[C@@H]1C[C@@H]1c1ccc2ccccc2c1` = > 100 µM

# value of TGI, NCI-H226 lung, item CC(C)C1CSC2N1C(=O)C2(OCc1ccccc1)C1CC1 (configuration not stated) = > 100 µM

# value of TGI, NCI-H226 lung, item `COC(=O)/C=C1/SC(=Nc2cccc(Cl)c2)N(CCc2c[nH]c3ccc(O)cc23)C1=O` = 3.08 µM

# value of TGI, NCI-H226 lung, item O=c1onc2n1-c1ccc(Cl)cc1C(=S)N1CSCC21 (configuration not stated) = 83.1 µM

# value of TGI, NCI-H226 lung, item `CCOC(=O)C(=Cc1ccc(C#N)cc1)C(=O)OCC` = 6.33 µM

# value of TGI, NCI-H226 lung, item `O=C(OC1=CCN(Br)C1=O)C1=C(O)C(=O)N(Br)C1` = > 100 µM

# value of TGI, NCI-H226 lung, item `COC(=O)CCC(=O)Nc1ccc(Cl)cc1C` = > 100 µM

# value of TGI, NCI-H226 lung, item `Cc1c(Cn2c(C)nc3c(C(=O)O)cc(N4CCOCC4)cc32)cccc1C(F)(F)F` = > 100 µM

# value of TGI, NCI-H226 lung, item `Cc1nc(OCc2ccccc2)c2ncn(CCO)c2n1` = > 100 µM

# value of TGI, NCI-H226 lung, item `COC(=O)C1=C(C)NC(=O)N2[C@@H](CCOCc3ccccc3)CC[C@@H]12` = > 50 µM

# value of TGI, NCI-H226 lung, item `COc1ccccc1C#Cc1ccccc1C#Cc1ccc(OCCCCCCOc2ccccc2C#Cc2ccccc2C#Cc2ccccc2OC)cc1` = > 100 µM

# value of TGI, NCI-H226 lung, item `COc1ccc(/C=C/c2cc(OC)c(OC(C)=O)c(OC)c2)cc1` = 96.6 µM

# value of TGI, NCI-H226 lung, item `COc1c2c(c3c(c1OC)c(=O)c1ccccc1n3C)OCO2` = > 100 µM

# value of TGI, NCI-H226 lung, item `NCC(=O)Nc1ccccc1` = > 100 µM

# value of TGI, NCI-H226 lung, item CSc1ccc(C2=NN(C(C)=O)C(c3ccc(-c4cc(Cl)c(Cl)cc4Cl)o3)C2)cc1 (configuration not stated) = 27.3 µM

# value of TGI, NCI-H226 lung, item `COc1cc2nc(Nc3cccc(Cl)c3)nc(N)c2cc1OC` = 29.5 µM

# value of TGI, NCI-H226 lung, item `CC1(C)N=C(N)N=C(N)N1c1ccc(CNC(=O)Nc2ccc(S(=O)(=O)F)c(Cl)c2)c(Cl)c1` = > 100 µM

# value of TGI, NCI-H226 lung, item CCOC(=O)C12CCCC1(O)N(NC(=O)OC)C(C)=C2C(=O)OC (configuration not stated) = > 100 µM

# value of TGI, NCI-H226 lung, item `Fc1cc(C2=Nn3c(COc4ccccc4Cl)nnc3S/C2=C\c2ccc(Cl)cc2)c(Cl)cc1Cl` = > 100 µM

# value of TGI, NCI-H226 lung, item `O=C(Nc1ccccc1)N(CCN(Cc1ccccc1)C(=O)Nc1ccccc1)CCN(Nc1ccccc1)C(=O)Nc1ccccc1` = > 100 µM
